B1: glmS ribozyme (parent)
chain: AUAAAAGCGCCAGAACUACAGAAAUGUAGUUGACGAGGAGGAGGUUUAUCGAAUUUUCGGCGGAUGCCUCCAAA

# Variants of: B1
# test_details: self-cleavage kobs at 160 uM GlcN6P; higher = faster cleavage; RNA array
# condition_summary: with glucosamine-6-phosphate
Fewer inactive variants are shown than the library holds.
observation_type: self-cleavage kobs at 160 uM GlcN6P

G44U G51C: < 1e-05 s⁻¹
A6C C34U U56C: < 1e-05 s⁻¹
A14U C16U: 0.000555 s⁻¹
A36U A48U: < 1e-05 s⁻¹
U46A C67U: 0.000165 s⁻¹
G37U G44A G66U: < 1e-05 s⁻¹
U54C C70G: 0.000109 s⁻¹
G41U G60U: < 1e-05 s⁻¹
A15C U57C G62C: < 1e-05 s⁻¹
G7C C10G: < 1e-05 s⁻¹
G7A G32U C34U: < 1e-05 s⁻¹
C8U G37C A39G: < 1e-05 s⁻¹
A12U A14C U47A: 0.000117 s⁻¹
G7U G35A G37C U46G U47A C70G: < 1e-05 s⁻¹
C8A C11A: < 1e-05 s⁻¹
G9C C67G: < 1e-05 s⁻¹
A12U U30C: 0.000652 s⁻¹
G35C U56G C58A U69A: < 1e-05 s⁻¹
A6U A14G A15U U31G U55G: < 1e-05 s⁻¹
U57A: 2.27e-05 s⁻¹
G51C U65G: < 1e-05 s⁻¹
G43U C50U: < 1e-05 s⁻¹
C61A C67A: 5.31e-05 s⁻¹
C10A A14U A52U C70G: 0.00038 s⁻¹
C61U U65G: < 1e-05 s⁻¹
U30A G60U: < 1e-05 s⁻¹
G32C A33U A52G: < 1e-05 s⁻¹
C34U U65A: < 1e-05 s⁻¹
G35U G62A: < 1e-05 s⁻¹
G35U U54A: < 1e-05 s⁻¹
U45G G59C: < 1e-05 s⁻¹
U69A C70U: 3.52e-05 s⁻¹
A15G C67U: 0.000674 s⁻¹
A6G G62U: < 1e-05 s⁻¹
A14U G66A: 0.000254 s⁻¹
U46A: 0.000271 s⁻¹
G43U C58G: < 1e-05 s⁻¹
A14G U30A G32A C68A: < 1e-05 s⁻¹
G7C U55A: < 1e-05 s⁻¹
G41A U45G: 3e-05 s⁻¹
A12C C67G: 0.000199 s⁻¹
C16U A48U C58G C70G: 4e-05 s⁻¹
G7U G35U: < 1e-05 s⁻¹
A6U C34A G63C: < 1e-05 s⁻¹
A12U C71U: 0.00891 s⁻¹
C10A C34U C50G G62U: 0.00045 s⁻¹
G40U U45G: 0.000202 s⁻¹
C8U A14G: < 1e-05 s⁻¹
C10U C50G C68U C70G: 0.000109 s⁻¹
G38U G41A C58A C61A: < 1e-05 s⁻¹
A12C U56G: 0.000652 s⁻¹
A6C U47C: < 1e-05 s⁻¹
C8G C11G U54A: < 1e-05 s⁻¹
A6G U30C: < 1e-05 s⁻¹
G41A G62A: < 1e-05 s⁻¹
C8G A64C: < 1e-05 s⁻¹
A39C U56A: 0.000129 s⁻¹
G51U U69G: 5.17e-05 s⁻¹
G7C A48U: < 1e-05 s⁻¹
A33U U54G U56G C61G U69C: 9.03e-05 s⁻¹
A15U A39U: 0.000251 s⁻¹
G9U G41A: < 1e-05 s⁻¹
A14G U56C: 0.000647 s⁻¹
G37A U46G: 4.31e-05 s⁻¹
G37U U54G: < 1e-05 s⁻¹
C16G A36U: < 1e-05 s⁻¹
G43A A52U: < 1e-05 s⁻¹
C16A A42C: < 1e-05 s⁻¹
G9A G32A G43C U56C C68U: < 1e-05 s⁻¹
U56A C67U: 0.000452 s⁻¹
C8U A39U: < 1e-05 s⁻¹
G35C A36C: < 1e-05 s⁻¹
G9A G43C G44C G62U: < 1e-05 s⁻¹
C11U A14C: 8.34e-05 s⁻¹
G32C A53U: < 1e-05 s⁻¹
C11G A36C U55A: < 1e-05 s⁻¹
A33U C34U: < 1e-05 s⁻¹
G9A G29C: < 1e-05 s⁻¹
A14C A53G C58A C70G: 5.16e-05 s⁻¹
A48G A64U: < 1e-05 s⁻¹
A12G C58A: 4.69e-05 s⁻¹
A14G G37A: 0.00027 s⁻¹
U46G: 0.000671 s⁻¹
G7C G41U: < 1e-05 s⁻¹
U31C U69C: 5.62e-05 s⁻¹
